Form field: pIC50 (one value per entry).
# System: MRC5
# EXPERIMENTAL_DETAILS: Cytotoxicity against human MRC5 cells after 4 hrs by MTT assay
# Assay type: cell-based
# SETTINGS: MRC5, 4 h
pIC50: −log10 of the molar value.
QUANTITY_KIND: pIC50

substance=H-RPFTRAQIFAIQHISPRTIAMRAINNYRWR-OH observed_value="< 3.82"
substance=H-RPFIRAQWFAIQHISPRTIAMRAINNYRWR-OH observed_value="< 3.82"

###

# EXPERIMENTAL_DETAILS: Selectivity index, ratio of IC50 for human MRC5 cells to ED50 for induction of biofilm eradication of Pseudomonas aeruginosa PAO1
# Format: toxicity
QUANTITY_KIND: selectivity ratio

substance=H-RPFIRAQWFAIQHISPRTIAMRAINNYRWR-OH quantity_kind="selectivity ratio" observed_value="16 to 60"
substance=H-RPFTRAQIFAIQHISPRTIAMRAINNYRWR-OH quantity_kind="selectivity ratio" observed_value="16 to 60"
